- System: Streptococcus mutans (ATCC33402)
- PROTOCOL: Microtitre plate assay, IC90 determination
- Format: cell-based
- COND: 90% inhibitory concentration for bacterial growth, 37° C., resazurin fluorescence, read-out: IC90 (μg/ml) SMU 33402
ASSAY METRIC: IC90 (µg/mL)

>>> print(df.to_string())
                                   molecule  assay_value
0  COc1nc2cccc(C(O)(CCN(C)C)c3ccc4ccccc4c3)c2cc1-c1ccccc1 (stereo not shown)          9.2

[P] CN(C)CCC(O)(c1ccccc1)c1cc(-c2cccnc2)cc2cc(-c3ccccc3)c(-c3cccnc3)nc12 (stereo not shown)
[Q] COc1nc2ccccc2c(CC(O)(CCN(C)C)c2cccc(F)c2)c1Cc1ccccc1 (stereo not shown)
[ask] Higher IC90: P or Q ? Record your answer as the label of the chosen record.
[reply] P

---

- Test system: methicilline resistant Staphylococcus aureus (MRSA) (a clinical isolate from the University of Antwerp)
- PROTOCOL: Microtitre plate assay, IC90 determination
- Type: cell-based
- COND: 90% inhibitory concentration for bacterial growth, 37° C., resazurin fluorescence, read-out: IC90 (μg/ml) STA RMETHIC
ASSAY METRIC: IC90 (µg/mL)
Numeric only. Scale: µg/mL

Below, each entry is followed by its recorded IC90 result.
                                   molecule  assay_value
0  COc1nc2c(C(O)(CCN(C)C)c3ccco3)cc(Br)cc2cc1-c1ccccc1 (stereo not shown) [Compound 13]         12.1
1  COc1nc2ccc(C(O)(CCN(C)C)c3cc(F)cc(F)c3)cc2cc1Cc1ccc(C)cc1 (stereo not shown) [Compound 7]         37.9
2  COc1cc(-c2ccccc2)c2cc(C(O)(CCN(C)C)c3ccccc3)ccc2n1 (stereo not shown) [Compound 14]         10.4
3  COc1nc2cccc(C(O)(CCN(C)C)c3cc4ccccc4o3)c2cc1-c1ccccc1 (stereo not shown) [Compound 6]         10.1
4  COc1nc2cccc(C(O)(CCN(C)C)c3cccc4ccccc34)c2cc1-c1ccccc1 (stereo not shown) [Compound 2]         11.6

[ask] Given COc1cc(-c2ccccc2)c2cc(C(O)(CCN(C)C)c3cc(F)cc(F)c3)ccc2n1 (stereo not shown) [Compound 11] , respond with its IC90.
[reply] 11.3

[ask] Given COc1nc2c(C(O)(CCN(C)C)c3ccccc3)cc(-c3cccnc3)cc2cc1Cc1ccccc1 (stereo not shown) [Compound 66] , respond with its IC90.
[reply] 50.4

---

Counter-ions that a name gives are not always drawn.
ASSAY METRIC: melting point (°C)

>>> df
                                   compound   assay_metric  assay_value
0  CN(C)CCC(O)(c1cc(F)cc(F)c1)c1cc(Br)cc2cc(-c3ccccc3)c(-n3ccnc3)nc12 (stereo not shown)  melting point          136
1  CN(C)CCC(O)(c1cc(F)cc(F)c1)c1cccc2nc(N(C)C)c(-c3ccccc3)cc12 (stereo not shown) (as salt: salt)  melting point          136

[a] CN(C)CCC(O)(c1cccc2ccccc12)c1cc(Br)cc2cc(-c3ccccc3)c(=O)[nH]c12 (stereo not shown)
[b] COc1nc2c(C(O)(CCN(C)C)c3ccccc3)cc(Br)cc2cc1Cc1ccccc1 (stereo not shown)
[ask] Please choose the item with the lower melting point value from this pair: a and b Record your answer as the label of the chosen record.
[reply] b

---

- System: Streptococcus pneumoniae (ATCC6305)
- PROTOCOL: Microtitre plate assay, IC90 determination
- Assay type: cell-based
- COND: 90% inhibitory concentration for bacterial growth, 37° C., resazurin fluorescence, read-out: IC90 (μg/ml) SPN 6305
ASSAY METRIC: IC90 (µg/mL)

Below, each entry is followed by its recorded IC90 result.
>>> df
                                   molecule  assay_metric  assay_value
0  COc1nc2cccc(C(O)(CCN(C)C)c3ccccc3)c2cc1-c1ccccc1 (stereo not shown)          IC90         10.4
1  CN(C)CCC(O)(Cc1c(-c2ccccc2)c(-c2ccccc2)nc2ccccc12)c1cc(F)cc(F)c1 (stereo not shown)          IC90         12.8
2  CN(C)CCC(O)(c1ccccc1)c1ccc2nc(N(C)C)cc(-c3ccccc3)c2c1 (stereo not shown)          IC90         10.7

[P] COc1nc2c(C(O)(CCN(C)C)c3ccccc3)cc(-c3cccnc3)cc2cc1Cc1ccccc1 (stereo not shown)
[Q] CN(C)CCC(O)(c1cccc2ccccc12)c1cc(Br)cc2cc(-c3ccccc3)c(=O)[nH]c12 (stereo not shown)
[ask] Please choose the item with the lower IC90 value from this pair: P and Q Record your answer as the label of the chosen record.
[reply] Q
(Q: 13.3 µg/mL, P: 50.4 µg/mL)

[I] COc1cc(-c2ccccc2)c2cc(C(O)(CCN(C)C)c3cc(F)cc(F)c3)ccc2n1 (stereo not shown)
[II] COc1nc2cccc(C(O)(CCN(C)C)c3ccc4ccccc4c3)c2cc1-c1ccccc1 (stereo not shown)
[ask] Please choose the item with the lower IC90 value from this pair: I and II Record your answer as the label of the chosen record.
[reply] II

---

- Test system: Staphylococcus aureus (ATCC29213)
- PROTOCOL: Microtitre plate assay, IC90 determination
- Assay type: cell-based
- COND: 90% inhibitory concentration for bacterial growth, 37° C., resazurin fluorescence, read-out: IC90 (μg/ml) STA 29213
ASSAY METRIC: IC90 (µg/mL)

Below, each entry is followed by its recorded IC90 result.
>>> print(df.to_string())
                                   compound  assay_value
0  COc1nc2c(C(O)(CCN(C)C)c3cc(F)cc(F)c3)cc(-c3cccnc3)cc2cc1-c1ccccc1 (stereo not shown) [Compound 64]          8.3
1  CC(=O)c1ccc(N2CCN(c3nc4c(C(O)(CCN(C)C)c5ccccc5)cc(Br)cc4cc3Cc3ccccc3)CC2)cc1 (stereo not shown) [Compound 54]           17
2  CN(C)CCC(O)(c1ccccc1)c1cc(Br)cc2cc(Cc3ccccc3)c(NCCC(c3ccccc3)c3ccccc3)nc12 (stereo not shown) [Compound 59]         15.3
3  CN(C)CCC(O)(c1ccccc1)c1ccc2nc(-c3cccnc3)cc(-c3ccccc3)c2c1 (stereo not shown) [Compound 43]         11.5
4  COc1nc2c(C(O)(CCN(C)C)c3cc(F)cc(F)c3)cc(Br)cc2cc1Cc1ccccc1 (stereo not shown) [Compound 12]         10.8

[I] COc1nc2cccc(C(O)(CCN(C)C)c3ccco3)c2cc1-c1ccccc1 (stereo not shown) [Compound 5]
[II] COc1nc2c(C(O)(CCN(C)C)c3ccccc3)cc(-c3cccnc3)cc2cc1Cc1ccccc1 (stereo not shown) [Compound 66]
[ask] Higher IC90: I or II ? Record your answer as the label of the chosen record.
[reply] II
(II: 40 µg/mL, I: 10.1 µg/mL)

---

- Test system: Streptococcus mutans (ATCC33402)
- PROTOCOL: Microtitre plate assay, IC90 determination
- Format: cell-based
- COND: 90% inhibitory concentration for bacterial growth, 37° C., resazurin fluorescence, read-out: IC90 (μg/ml) SMU 33402
ASSAY METRIC: IC90 (µg/mL)

>>> df
                                   molecule                      study_system  display_unit  assay_value
0  COc1nc2c(C(O)(CCN(C)C)c3cc(F)cc(F)c3)cc(Br)cc2cc1-c1ccccc1 (stereo not shown)  Streptococcus mutans (ATCC33402)         µg/mL         10.5

[1] COc1nc2c(C(O)(CCN(C)C)c3ccccc3)cc(Br)cc2cc1Cc1ccccc1 (stereo not shown)
[2] CN(C)CCC(O)(c1cccc2ccccc12)c1cc(Br)cc2cc(Cc3ccccc3)c(N3CCN(c4n[nH]c5ccccc45)CC3)nc12 (stereo not shown)
[ask] Please choose the item with the lower IC90 value from this pair: 1 and 2 Record your answer as the label of the chosen record.
[reply] 2

---

Listed compounds paired with reported IC90
- Tested on: methicilline resistant Staphylococcus aureus (MRSA) (a clinical isolate from the University of Antwerp)
- PROTOCOL: Microtitre plate assay, IC90 determination
- Assay type: cell-based
- COND: 90% inhibitory concentration for bacterial growth, 37° C., resazurin fluorescence, read-out: IC90 (μg/ml) STA RMETHIC
Numeric only. Scale: µg/mL

Below, each entry is followed by its recorded IC90 result.
>>> print(df.to_string())
                                   compound  assay_value
0  COc1nc2c(C(O)(CCN(C)C)c3cc(F)cc(F)c3)cc(Br)cc2cc1-c1ccccc1 (stereo not drawn) [Compound 9]         11.8
1  CN(C)CCC(O)(c1cc(F)cc(F)c1)c1ccc2nc(-c3cccnc3)cc(-c3ccccc3)c2c1 (stereo not drawn) [Compound 42]         49.6
2  COc1nc2ccccc2c(CC(O)(CCN(C)C)c2cccc(F)c2)c1Cc1ccccc1 (stereo not drawn) [Compound 71]         11.5
3  COc1nc2c(C(O)(CCN(C)C)c3cc(F)cc(F)c3)cc(Br)cc2cc1Cc1ccccc1 (stereo not drawn) [Compound 12]         12.1
4  COc1cc(-c2ccccc2)c2cc(C(O)(CCN(C)C)c3ccco3)ccc2n1 (stereo not drawn) [Compound 15]         10.1
5  CN(C)CCC(O)(c1ccc2nc(-c3cccnc3)cc(-c3ccccc3)c2c1)c1ccco1 (stereo not drawn) [Compound 44]         11.3

[ask] Given COc1nc2cccc(C(O)(CCN(C)C)c3ccco3)c2cc1-c1ccccc1 (stereo not drawn) [Compound 5] , respond with its IC90.
[reply] 9

[ask] Given CN(C)CCC(O)(c1cccs1)c1cc(Br)cc2cc(Cc3ccccc3)c(N(C)C)nc12 (stereo not drawn) [Compound 46] , respond with its IC90.
[reply] 9.3

[ask] Given CN(C)CCC(O)(c1cccs1)c1cc(Br)cc2cc(Cc3ccccc3)c(N3CCN(C)CC3)nc12 (stereo not drawn) [Compound 20] , respond with its IC90.
[reply] 46

[ask] Given COc1nc2cccc(C(O)(CCN(C)C)c3ccccc3)c2cc1-c1ccccc1 (stereo not drawn) [Compound 4] , respond with its IC90.
[reply] 10.4

[ask] Given COc1nc2c(C(O)(CCN(C)C)c3cccs3)cc(Br)cc2cc1Cc1ccccc1 (stereo not drawn) [Compound 10] , respond with its IC90.
[reply] 10.2

[ask] Given CN(C)CCC(O)(c1ccccc1)c1cc(Br)cc2cc(Cc3ccccc3)c(NCCC(c3ccccc3)c3ccccc3)nc12 (stereo not drawn) [Compound 59] , respond with its IC90.
[reply] 54.4

[ask] Given COc1nc2c(C(O)(CCN(C)C)c3cc(F)cc(F)c3)cc(-c3cccnc3)cc2cc1-c1ccccc1 (stereo not drawn) [Compound 64] , respond with its IC90.
[reply] 11.8

[ask] Given COc1nc2ccccc2c(CC(O)(CCN(C)C)c2cccc3ccccc23)c1Cc1ccccc1 (stereo not drawn) [Compound 70] , respond with its IC90.
[reply] 12.3

[ask] Given CN(C)CCC(O)(c1cccc2ccccc12)c1cc(Br)cc2cc(-c3ccccc3)c(=O)[nH]c12 (stereo not drawn) [Compound 69] , respond with its IC90.
[reply] 52.8
